From: ChEMBL document CHEMBL4732258

Items are presented alongside their recorded Activity.
- Test system: KBV
- protocol-summary: Reversal of Pgp-mediated paclitaxel resistance in human KBV cells assessed as cell viability at 10 uM in presence of paclitaxel incubated for 72 hrs by MTT assay
- Type: cell-based
Use % as the unit, but write only the number.

I have this compound here, CC(C)(O)[C@H]1CC[C@@](C)([C@H]2CC[C@]3(C)[C@@H]2[C@H](O)C[C@@H]2[C@@]4(C)CC[C@H](O)C(C)(C)[C@@H]4CC[C@]23C)O1 , and I need its recorded Activity.
63

I have this compound here, CC(C)(C)OC(=O)N[C@@H](Cc1cn(C(=O)OC(C)(C)C)c2ccccc12)C(=O)O[C@H]1CC[C@]2(C)[C@H]3C[C@@H](O)[C@@H]4[C@@H]([C@]5(C)CC[C@@H](C(C)(C)O)O5)CC[C@@]4(C)[C@]3(C)CC[C@H]2C1(C)C , and I need its recorded Activity.
147

* * *

- protocol-summary: Cytotoxicity against human KBV cells assessed as cell viability at 10 uM incubated for 72 hrs by MTT assay
- Type: cell-based
- setup-conditions: read-out: Activity
readout-name: viability at 72 h, 10 µM (%)
Use % as the unit, but write only the number.

CC(C)(C)OC(=O)N[C@@H](Cc1ccc(OC(C)(C)C)cc1)C(=O)O[C@H]1CC[C@]2(C)[C@H]3C[C@@H](O)[C@@H]4[C@@H]([C@]5(C)CC[C@@H](C(C)(C)O)O5)CC[C@@]4(C)[C@]3(C)CC[C@H]2C1(C)C; 104

I have this molecule here, C[C@@H](OCc1ccccc1)[C@H](N)C(=O)O[C@H]1CC[C@]2(C)[C@H]3C[C@@H](O)[C@@H]4[C@@H]([C@]5(C)CC[C@H](C(C)(C)O)O5)CC[C@@]4(C)[C@]3(C)CC[C@H]2C1(C)C , and I need its recorded viability at 72 h, 10 µM.
20

* * *

- Tested on: KBV
- protocol-summary: Reversal of Pgp-mediated paclitaxel resistance in human KBV cells assessed as cell viability at 5 uM in presence of paclitaxel incubated for 72 hrs by MTT assay
- Assay type: cell-based
readout-name: Activity (%)
Use % as the unit, but write only the number.

Solved cases (2 shown):
CC(C)(C)OC(=O)N[C@@H](Cc1ccc(OC(C)(C)C)cc1)C(=O)O[C@H]1CC[C@]2(C)[C@H]3C[C@@H](O)[C@@H]4[C@@H]([C@]5(C)CC[C@@H](C(C)(C)O)O5)CC[C@@]4(C)[C@]3(C)CC[C@H]2C1(C)C; 78
C[C@@H](OCc1ccccc1)[C@H](NC(=O)OC(C)(C)C)C(=O)O[C@H]1CC[C@]2(C)[C@H]3C[C@@H](O)[C@@H]4[C@@H]([C@]5(C)CC[C@H](C(C)(C)O)O5)CC[C@@]4(C)[C@]3(C)CC[C@H]2C1(C)C; 138

Now consider a different molecule.
I have this molecule here, CC(C)(C)OC(=O)N[C@@H](Cc1cn(C(=O)OC(C)(C)C)c2ccccc12)C(=O)O[C@H]1CC[C@]2(C)[C@H]3C[C@@H](O)[C@@H]4[C@@H]([C@]5(C)CC[C@@H](C(C)(C)O)O5)CC[C@@]4(C)[C@]3(C)CC[C@H]2C1(C)C , and I need its recorded Activity.
138

* * *

- protocol-summary: Cytotoxicity against human KBV cells assessed as cell viability at 10 uM incubated for 72 hrs by MTT assay
- Type: cell-based
- setup-conditions: read-out: Activity
readout-name: viability at 72 h, 10 µM (%)
Use % as the unit, but write only the number.

Solved cases (3 shown):
C[C@@H](OCc1ccccc1)[C@H](NC(=O)OC(C)(C)C)C(=O)O[C@H]1CC[C@]2(C)[C@H]3C[C@@H](O)[C@@H]4[C@@H]([C@]5(C)CC[C@@H](C(C)(C)O)O5)CC[C@@]4(C)[C@]3(C)CC[C@H]2C1(C)C; 76
CC(C)(O)[C@H]1CC[C@@](C)([C@H]2CC[C@]3(C)[C@@H]2[C@H](O)C[C@@H]2[C@@]4(C)CC[C@H](O)C(C)(C)[C@@H]4CC[C@]23C)O1; 91
CC(C)(C)OC(=O)NCCCC[C@H](NC(=O)OC(C)(C)C)C(=O)O[C@H]1CC[C@]2(C)[C@H]3C[C@@H](O)[C@@H]4[C@@H]([C@]5(C)CC[C@H](C(C)(C)O)O5)CC[C@@]4(C)[C@]3(C)CC[C@H]2C1(C)C; 147

Now consider a different molecule.
I have this molecule here, CC(C)(C)OC(=O)CC[C@H](NC(=O)OC(C)(C)C)C(=O)O[C@H]1CC[C@]2(C)[C@H]3C[C@@H](O)[C@@H]4[C@@H]([C@]5(C)CC[C@@H](C(C)(C)O)O5)CC[C@@]4(C)[C@]3(C)CC[C@H]2C1(C)C , and I need its recorded viability at 72 h, 10 µM.
46
